I'd appreciate it if you could supply IC50 values for the items below.
# system.name: UniProt:P12931
# Sequence (P12931 2-536 limits assumed): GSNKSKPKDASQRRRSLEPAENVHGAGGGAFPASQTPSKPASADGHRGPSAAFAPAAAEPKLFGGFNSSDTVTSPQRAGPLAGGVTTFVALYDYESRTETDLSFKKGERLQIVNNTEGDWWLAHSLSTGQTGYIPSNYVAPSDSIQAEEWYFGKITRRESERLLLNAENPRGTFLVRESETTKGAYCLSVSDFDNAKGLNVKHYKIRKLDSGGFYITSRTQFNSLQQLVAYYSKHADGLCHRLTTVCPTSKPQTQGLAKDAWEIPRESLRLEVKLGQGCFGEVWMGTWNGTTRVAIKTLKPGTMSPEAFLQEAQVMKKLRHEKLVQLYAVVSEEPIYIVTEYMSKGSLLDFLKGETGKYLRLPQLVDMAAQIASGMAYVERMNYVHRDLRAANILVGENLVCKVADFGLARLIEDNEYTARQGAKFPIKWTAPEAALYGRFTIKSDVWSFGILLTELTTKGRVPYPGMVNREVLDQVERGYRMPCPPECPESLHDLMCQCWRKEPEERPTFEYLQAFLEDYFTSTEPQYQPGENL
Numbers only, in µM.

Look over these answered cases.
Cc1cccc(C)c1-c1cc(C)c2nc(Nc3cccc(N(CCN4CCCC4)C(=O)c4ccccc4)c3)nnc2c1 0.018
COc1cc2c(cc1O)CCN[C@]21CS[C@H]2c3c(OC(C)=O)c(C)c4c(c3[C@@H](COC1=O)N1[C@@H]2[C@H]2c3c(cc(C)c(OC)c3O)C[C@@H]([C@@H]1O)N2C)OCO4 0.208

Data point: `Cc1ccc(CN)cc1-c1cc(C)c2nc(Nc3ccc(S(=O)(=O)NCCN4CCCC4)cc3)nnc2c1` ; IC50 = 0.353

---

# method: Tmax in rat at 25 mg/kg, po
# Format: ADME, organism-based
# Design: dose 25 mg/kg, route oral
# measurement.context: in vivo
measurement.label: Tmax
Answer shape: numeric part, then the unit.

Cc1cccc(C)c1-c1cc(C)c2nc(Nc3ccc(OCCN4CCCC4)cc3)nnc2c1 6 h

Next item in the queue.
Data point: `Cc1cc(-c2c(Cl)cccc2Cl)cc2nnc(Nc3ccc(OCCN4CCCC4)cc3)nc12` ; Tmax = 8.8 h
